Test: Half life in dog
Assay type: ADME, organism-based, Canis lupus familiaris
Conditions: in vivo
ENDPOINT NAME: half-life
Form field: result (number plus unit)

Which half-life value belongs to CN(C)C[C@@H](OC(=O)N1Cc2c(NC(=O)C(C)(C)C)n[nH]c2C1(C)C)c1ccccc1 ?
132 min

----------
Assay: Clearance in dog
Assay type: ADME, organism-based, Canis lupus familiaris
Conditions: in vivo
ENDPOINT NAME: clearance (mL/min/kg)
Record the value in mL/min/kg, omitting the unit from your answer.

Can you share its clearance? I mean this molecule: CN(C)C[C@@H](OC(=O)N1Cc2c(NC(=O)C(C)(C)C)n[nH]c2C1(C)C)c1ccccc1
12

----------
Target: Serine/threonine-protein kinase PAK 4 (Homo sapiens, UniProt O96013)
Sequence (O96013 whole entry): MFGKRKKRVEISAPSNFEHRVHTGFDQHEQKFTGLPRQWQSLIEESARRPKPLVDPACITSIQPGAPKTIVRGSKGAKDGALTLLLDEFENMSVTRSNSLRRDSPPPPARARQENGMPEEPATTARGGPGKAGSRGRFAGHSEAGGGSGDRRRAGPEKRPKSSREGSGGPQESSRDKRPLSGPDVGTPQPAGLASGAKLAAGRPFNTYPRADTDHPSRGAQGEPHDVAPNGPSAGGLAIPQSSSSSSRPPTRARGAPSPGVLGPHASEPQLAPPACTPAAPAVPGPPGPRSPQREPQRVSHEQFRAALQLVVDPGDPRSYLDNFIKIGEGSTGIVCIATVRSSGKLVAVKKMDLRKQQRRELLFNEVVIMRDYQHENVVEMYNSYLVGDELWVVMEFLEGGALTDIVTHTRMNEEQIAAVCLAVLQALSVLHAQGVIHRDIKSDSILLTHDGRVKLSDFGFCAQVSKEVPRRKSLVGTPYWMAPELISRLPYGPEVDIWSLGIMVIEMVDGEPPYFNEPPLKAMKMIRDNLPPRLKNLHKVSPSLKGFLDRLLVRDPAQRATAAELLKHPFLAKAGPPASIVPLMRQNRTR
Test: Inhibition of PAK4-mediated GEF-H1 phosphorylation at Ser810 by cell based assay
Conditions: read-out: EC50
pEC50: −log10 of the molar value.
# pEC50 >= 8 gives satisfied, anything below gives not satisfied

// known answers, use as guide
INSERT INTO assay_data (compound, assigned_category) VALUES
  ('CN(C)C[C@@H](OC(=O)N1Cc2c(NC(=O)C3(C(F)(F)F)CCC3)n[nH]c2C1(C)C)c1ccccc1', 'satisfied'),
  ('CN1CCN(C(=O)N2Cc3c(NC(=O)c4cccc(Oc5ccccc5)c4)n[nH]c3C2(C)C)[C@@H](Cc2ccccc2)C1', 'not satisfied'),
  ('CN1CCN(C(=O)N2Cc3c(n[nH]c3NC(=O)c3ccccc3)C2(C)C)C(c2ccccc2)C1 (centres undefined)', 'not satisfied'),
  ('CN(C)C[C@@H](OC(=O)N1Cc2c(NC(=O)C(C)(C)C)n[nH]c2C1(C)C)c1ccccc1', 'satisfied');

Now look at this one.
hey, is pEC50 for this one >= 8? CN(C)C[C@@H](OC(=O)N1Cc2c(NC(=O)C(C)(C)C(F)(F)F)n[nH]c2C1(C)C)c1ccccc1
satisfied

----------
Experiment: Octanol/buffer partition coefficient, log D of the compound at pH 7.4
Format: physicochemical
# logD listing for each entry below
Field format: numeric only.

# annotated cases, reported logD shown
INSERT INTO measurements (compound, meas_value) VALUES
  ('CN(C)C[C@H](c1ccccc1)N(C)C(=O)N1Cc2c(NC(=O)c3ccccc3)n[nH]c2C1(C)C', 2.68),
  ('CN(C)C[C@@H](OC(=O)N1Cc2c(NC(=O)c3ccc(F)cc3)n[nH]c2C1(C)C)c1ccccc1', 2.79),
  ('CN(C)C[C@@H](NC(=O)N1Cc2c(NC(=O)c3ccccc3)n[nH]c2C1(C)C)c1ccccc1', 1.77),
  ('CN1CCN(C(=O)N2Cc3c(NC(=O)c4cccc(Oc5ccccc5)c4)n[nH]c3C2(C)C)[C@@H](Cc2ccccc2)C1', 5.45),
  ('CN(C)C[C@@H](NC(=O)N1Cc2c(NC(=O)c3ccccc3F)n[nH]c2C1(C)C)c1ccccc1', 2.33);

// query logD value for entry CN(C)C[C@@H](OC(=O)N1Cc2c(NC(=O)c3ccc(F)cc3F)n[nH]c2C1(C)C)c1ccccc1
2.68

What value of logD has been reported for the following compound? CN(C)C[C@@H](OC(=O)N1Cc2c(NC(=O)c3ccccn3)n[nH]c2C1(C)C)c1ccccc1
2.23

Which logD value belongs to CN(C)C[C@@H](OC(=O)N1Cc2c(NC(=O)C3CCCO3)n[nH]c2C1(C)C)c1ccccc1 (mixture of isomers) ?
2.08

----------
Assay: Metabolic stability of the compound in human liver microsomes assessed as compound remaining after 30 mins
Assay type: ADME, Microsome
Details: read-out: Stability
ENDPOINT NAME: remaining at 0.5 h
Quote the value and follow it with the unit of measurement.

Requested read-out: remaining at 0.5 h. Entry: CN1CCN(C(=O)N2Cc3c(NC(=O)c4cccc(Oc5ccccc5)c4)n[nH]c3C2(C)C)[C@@H](Cc2ccccc2)C1
2%

----------
Test: Efflux ratio of permeability from basolateral to apical side over apical to basolateral side in human Caco2 cells
Type: ADME, cell-based
Settings: Caco-2
ENDPOINT NAME: efflux ratio
In your answer, state the number alone without any accompanying words.

What value of efflux ratio has been reported for the following compound? CN(C)C[C@@H](OC(=O)N1Cc2c(NC(=O)c3ccccn3)n[nH]c2C1(C)C)c1ccccc1
1.61

Return reported efflux ratio; argument: CN(C)C[C@@H](OC(=O)N1Cc2c(NC(=O)C3CCCO3)n[nH]c2C1(C)C)c1ccccc1 (mixture of isomers)
8.7

Find the recorded efflux ratio belonging to CN(C)C[C@@H](OC(=O)N1Cc2c(NC(=O)c3ccc(F)cc3)n[nH]c2C1(C)C)c1ccccc1 and report it.
7

Fill blank: measured efflux ratio of the compound CN(C)C[C@H](c1ccccc1)N(C)C(=O)N1Cc2c(NC(=O)c3ccccc3)n[nH]c2C1(C)C is ____.
53.6

----------
Experiment: Clearance in rat at 5 mg/kg, iv and 10 mg/kg, po
Assay type: ADME, organism-based
Settings: in vivo
Below, each entry is listed alongside its reported clearance.
Just the number please, in mL/min/kg, no unit attached.

Known results for compounds:
INSERT INTO assay_data (compound, meas_value) VALUES
  ('CN(C)C[C@@H](OC(=O)N1Cc2c(NC(=O)C(C)(C)C(F)(F)F)n[nH]c2C1(C)C)c1ccccc1', 37),
  ('CN(C)C[C@@H](OC(=O)N1Cc2c(NC(=O)c3ccc(F)cc3)n[nH]c2C1(C)C)c1ccccc1', 98);

Next compound, clearance to be filled in.
Reported clearance for CN(C)C[C@@H](OC(=O)N1Cc2c(NC(=O)C3CCCO3)n[nH]c2C1(C)C)c1ccccc1 (mixture of isomers) : what is it?
69

----------
Molecular target: Serine/threonine-protein kinase PAK 4 (Homo sapiens, UniProt O96013)
Assay: Inhibition of PAK4-mediated GEF-H1 phosphorylation at Ser810 by cell based assay
Settings: read-out: EC50
ENDPOINT NAME: pEC50
// scale note: pEC50 = -log10(conc_M); give the bare number

Find the measured pEC50: item CN(C)C[C@@H](OC(=O)N1Cc2c(NC(=O)c3ccc(F)cc3)n[nH]c2C1(C)C)c1ccccc1 , target or system Serine/threonine-protein kinase PAK 4 (Homo sapiens, UniProt O96013).
8.05

Record lookup: for Serine/threonine-protein kinase PAK 4 (Homo sapiens, UniProt O96013), what pEC50 belongs to CN(C)C[C@@H](OC(=O)N1Cc2c(NC(=O)C3(C(F)(F)F)CC3)n[nH]c2C1(C)C)c1ccccc1 ?
8.15

Request - read-out pEC50 | tested on Serine/threonine-protein kinase PAK 4 (Homo sapiens, UniProt O96013) | compound CN(C)C[C@@H](OC(=O)N1Cc2c(NC(=O)c3ccc(F)cc3F)n[nH]c2C1(C)C)c1ccccc1
7.82

State its pEC50 on Serine/threonine-protein kinase PAK 4 (Homo sapiens, UniProt O96013): CN(C)C[C@@H](NC(=O)c1ccc2[nH]nc(-c3nc4ccccc4[nH]3)c2c1)c1ccccc1
7.90

----------
Assay: Octanol/buffer partition coefficient, log D of the compound at pH 7.4
Type: physicochemical
Measured logD, listed per entry.
Reply briefly: the number, and no unit.

Would you please look over these solved cases?
INSERT INTO measurements (molecule, endpoint_name, meas_value) VALUES
  ('CN1CCN(C(=O)N2Cc3c(n[nH]c3NC(=O)c3ccccc3)C2(C)C)C(c2ccccc2)C1 (stereo not drawn)', 'logD', 3.2),
  ('CN(C)C[C@@H](OC(=O)N1Cc2c(NC(=O)C3CCCCO3)n[nH]c2C1(C)C)c1ccccc1 (mixture of isomers)', 'logD', 2.48),
  ('CN(C)C[C@@H](OC(=O)N1Cc2c(NC(=O)C3(C(F)(F)F)CCC3)n[nH]c2C1(C)C)c1ccccc1', 'logD', 1.6),
  ('CN(C)C[C@@H](OC(=O)N1Cc2c(NC(=O)c3ccccc3)n[nH]c2C1(C)C)c1ccccc1', 'logD', 2.66),
  ('CN(C)C[C@@H](NC(=O)c1ccc2[nH]nc(-c3nc4ccccc4[nH]3)c2c1)c1ccccc1', 'logD', 3.6),
  ('CN(C)C[C@@H](OC(=O)N1Cc2c(NC(=O)C3(C(F)(F)F)CC3)n[nH]c2C1(C)C)c1ccccc1', 'logD', 1.5);

Dear colleague, I am looking for the recorded logD of the following molecule: CN(C)C[C@@H](OC(=O)N1Cc2c(NC(=O)C(C)(C)C)n[nH]c2C1(C)C)c1ccccc1
2.52

Item CN(C)C[C@@H](OC(=O)N1Cc2c(NC(=O)C(C)(C)C(F)(F)F)n[nH]c2C1(C)C)c1ccccc1 has what recorded logD?
1.61
